# experimental.system: human DLL4, full length, on cells (human, UniProt Q9NR61 27-685)
# Sequence (Q9NR61 27-685 limits assumed): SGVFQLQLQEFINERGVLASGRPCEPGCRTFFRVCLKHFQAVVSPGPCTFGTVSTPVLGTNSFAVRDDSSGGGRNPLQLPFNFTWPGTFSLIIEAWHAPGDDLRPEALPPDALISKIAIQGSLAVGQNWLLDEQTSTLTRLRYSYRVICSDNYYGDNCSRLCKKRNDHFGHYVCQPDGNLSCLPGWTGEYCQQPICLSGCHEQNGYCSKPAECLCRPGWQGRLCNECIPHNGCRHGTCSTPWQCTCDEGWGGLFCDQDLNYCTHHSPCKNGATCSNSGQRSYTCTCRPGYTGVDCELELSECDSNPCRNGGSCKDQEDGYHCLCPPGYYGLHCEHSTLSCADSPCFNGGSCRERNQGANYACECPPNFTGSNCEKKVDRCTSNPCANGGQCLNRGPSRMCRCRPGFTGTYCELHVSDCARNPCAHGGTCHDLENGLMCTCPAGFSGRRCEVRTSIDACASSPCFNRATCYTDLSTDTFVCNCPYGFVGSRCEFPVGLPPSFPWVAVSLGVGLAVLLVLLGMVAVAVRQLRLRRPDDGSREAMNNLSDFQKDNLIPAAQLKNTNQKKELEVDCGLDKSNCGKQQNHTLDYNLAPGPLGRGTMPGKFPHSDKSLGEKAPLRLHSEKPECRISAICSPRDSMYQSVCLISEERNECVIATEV
# assay.procedure: cell-based or functional assay
Quick reference: Notch Reporter Assay EC50 of the listed items.
Express it in nM; write the number only.

Field: example entries. Status: answers known.
[[record]]
binder = "h38H12.9 (antibody, V domains shown, humanized IgG; also called VH.1b/VL.1 38H12) VH: EVQLVESGGGVVQPGRSLRLSCAASGFTFSNYGMYWVRQAPGKGLEWVAFISHGGGITYYRDSVKGRFTISRDNSKNTLYLQMNSLRAEDTAVYYCAALNWELGIDYWGQGTMVTVSS VL: DIQMTQSPSSLSASVGDRVTITCRASEDIYSNLAWYQQKPGKAPKLLIYAANRLQDGVPSRFSGSGSGTDFTLTISSLQPEDFATYYCLQGSKFPLTFGQGTKLEIKR"
numeric_value = 1.44

[[record]]
binder = "h38H12.6 (antibody, V domains shown, humanized IgG; also called VH.1a/VL.1a 38H12) VH: EVQLVESGGGVVQPGRSLRLSCAASGFTFSNYGMYWIRQAPGKGLEWVAFISHGGGITYYRDSVKGRFTISRDNSKSTLYLQMNSLRAEDTAVYHCAALNWELGIDYWGQGTMVTVSS VL: DIQMTQSPSSLSASVGDRVTITCRASEDIYSNLAWYQKKPGKSPKLLIYAANRLQDGVPSRFSGSGSGTDYTLTISSLQPEDFATYFCLQGSKFPLTFGQGTKLEIKR"
numeric_value = 6.32


Supply measured Notch Reporter Assay EC50 of h38H12.12 (antibody, V domains shown, humanized IgG; also called VH.1b/VL.2a 38H12) VH: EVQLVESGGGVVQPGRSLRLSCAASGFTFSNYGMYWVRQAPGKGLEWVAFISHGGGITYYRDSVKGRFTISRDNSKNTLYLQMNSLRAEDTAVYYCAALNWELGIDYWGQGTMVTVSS VL: EIVMTQSPATLSVSPGERATLSCRASEDIYSNLAWYQKKPGQSPRLLIYAANRLQDGVPARFSGSGSGTEYTLTISSLQSEDFAVYFCLQGSKFPLTFGQGTKLEIKR in your reply. 1.06

Data provenance is patent US20110217237A1.
